Tested on: HIV-1 single-round infectious reporter virus
ASSAY_TEXT: Single-round infectious HIV-1 luciferase reporter virus infection of HeLa CD4 cells (antiviral EC50)
Format: cell-based
PARTICULARS: Human immunodeficiency virus 1, HeLa, read-out: EC50 Group from Table 3
pEC50: −log10 of the molar value.
The following compounds are listed with their measured pEC50 values.
READOUT_NAME: pEC50

{"COMPOUND": "CN(C)C(=O)C(=O)Nc1ncc(F)c2c(C(=O)C(=O)N3CCN(c4nnnn4-c4ccccc4)CC3)c[nH]c12", "MEASURED": "> 6.30"}
{"COMPOUND": "CCC(O)(CC)c1cc(-c2ncc(OC)c3c(C(=O)C(=O)N4CCN(c5nnnn5-c5ccccn5)CC4)c[nH]c23)n[nH]1", "MEASURED": "> 6.30"}
{"COMPOUND": "O=C(NCCN1CCOCC1)c1cc(-c2ncc(F)c3c(C(=O)C(=O)N4CCN(c5nnnn5-c5ccccc5)CC4)c[nH]c23)n[nH]1", "MEASURED": "> 6.30"}
{"COMPOUND": "O=C(C(=O)N1CCN(N2C(=O)CC2c2ccccc2)CC1)c1c[nH]c2c(-n3ccnn3)ncc(F)c12 (stereo not drawn)", "MEASURED": "< 6.30"}
{"COMPOUND": "COc1nc(N2CCN(C(=O)C(=O)c3c[nH]c4c(-n5ccnn5)ncc(F)c34)CC2)n(-c2ccccc2)n1 [G-29a]", "MEASURED": "> 6.30"}
{"COMPOUND": "Cc1nc(N2CCN(C(=O)C(=O)c3c[nH]c4c(-n5ccnn5)ncc(F)c34)[C@H](C)C2)c2c(-c3ccccc3)csc2n1", "MEASURED": "< 6.30"}
{"COMPOUND": "COc1cnc(-n2cnc(C)n2)c2[nH]cc(C(=O)C(=O)N3CCN(c4nnnn4-c4ccccc4)C[C@H]3C)c12", "MEASURED": "> 6.30"}
{"COMPOUND": "C/C(=N\\O)c1ncc(F)c2c(C(=O)C(=O)N3CCN(c4nnnn4-c4ccccc4)CC3)c[nH]c12", "MEASURED": "> 6.30"}
{"COMPOUND": "CN1CCN(CCCNC(=O)c2cc(-c3ncc(F)c4c(C(=O)C(=O)N5CCN(c6nnnn6-c6ccccc6)CC5)c[nH]c34)n[nH]2)CC1", "MEASURED": "> 6.30"}
{"COMPOUND": "N#CCCC(=O)c1cccnc1N1CCN(C(=O)C(=O)c2c[nH]c3c(-n4ccnn4)ncc(F)c23)CC1", "MEASURED": "< 6.30"}
{"COMPOUND": "O=C(C(=O)N1CCN(c2cn[nH]c2-c2ccccn2)CC1)c1c[nH]c2c(-n3ccnn3)ncc(F)c12", "MEASURED": "> 6.30"}
{"COMPOUND": "CCOC(=O)c1cc(-c2ncc(F)c3c(C(=O)C(=O)N4CCN(c5nnnn5-c5ccccc5)CC4)cn(C)c23)nn1C", "MEASURED": "> 6.30"}
{"COMPOUND": "C[C@@H]1CN(c2nn(C)c(=O)cc2-c2ccccc2)CCN1C(=O)C(=O)c1c[nH]c2c(-n3ccnn3)ncc(F)c12", "MEASURED": "< 6.30"}
{"COMPOUND": "COc1cnc(-c2cncnc2)c2[nH]cc(C(=O)C(=O)N3CCN(c4nnnn4-c4ccccc4)CC3)c12", "MEASURED": "> 6.30"}
{"COMPOUND": "COc1cnc(-n2cnc(C)n2)c2[nH]cc(C(=O)C(=O)N3CCN(c4nc5ccccc5n4-c4ccccc4)CC3)c12", "MEASURED": "> 6.30"}
